- Test system: NCI/ADR-RES ovarian
- Assay comment: NCI tumour cell line growth inhibition, 48 h
TGI listing for selected molecules.

>  <Molecule>
COc1ccc(/C(COc2ccc3c(=O)cc(-c4ccccc4)oc3c2)=N\O)cc1

>  <TGI>
> 50 µM

$$$$
>  <Molecule>
C(#Cc1ccccc1C#Cc1cccs1)c1cccs1

>  <TGI>
> 100 µM

$$$$
>  <Molecule>
COc1ccc(-c2c(C#N)c(N)n(C3OCC(OC(C)=O)C(OC(C)=O)C3OC(C)=O)c(=S)c2C#N)cc1 (stereo not given)

>  <TGI>
> 100 µM

$$$$
>  <Molecule>
C=C(C)C(=O)Nc1ccc(NC(C)C)cc1

>  <TGI>
> 100 µM

$$$$
>  <Molecule>
CSc1nc(C#N)c(/N=C\N(C)C)n1C

>  <TGI>
> 100 µM

$$$$

====

- Test system: SF-268 CNS
- Assay comment: NCI tumour cell line growth inhibition, 48 h
TGI listing for selected compounds.
Readout: TGI (µM)

>  <Compound>
Nc1c(C(=O)c2cccc(-c3ccncc3)c2)cnn1-c1ccc(F)cc1F

>  <Readout>
TGI

>  <Censoring qualifier>
>

>  <Data value>
25

$$$$
>  <Compound>
COc1cc(C(=O)O[C@H](C(=O)NCCCCCNC(=O)[C@@H](OC(=O)c2cc(OC)cc3c(C)cccc23)[C@]2(C)CO2)[C@]2(C)CO2)c2cccc(C)c2c1

>  <Readout>
TGI

>  <Censoring qualifier>
=

>  <Data value>
0.92

$$$$
>  <Compound>
C=C1C(=O)O[C@H]2[C@H]1CC/C(COC(=O)NCc1cn(C)c3ccccc13)=C\CC[C@@]1(C)O[C@@H]21

>  <Readout>
TGI

>  <Censoring qualifier>
=

>  <Data value>
4.95

$$$$
>  <Compound>
CC(C)N(Cc1ccccc1)c1c(S)ssc1=S

>  <Readout>
TGI

>  <Censoring qualifier>
=

>  <Data value>
31.7

$$$$
>  <Compound>
CC(=O)OCC1=C(CCC#N)N2C(=O)C(NC(=O)Cc3cccs3)C2S(=O)C1 (configuration not stated)

>  <Readout>
TGI

>  <Censoring qualifier>
>

>  <Data value>
100

$$$$
>  <Compound>
O=C(c1cccs1)N(C(=S)N1CCN(c2ccccn2)CC1)c1ccccc1

>  <Readout>
TGI

>  <Censoring qualifier>
>

>  <Data value>
100

$$$$
>  <Compound>
CN[C@@H](C)C(=O)N[C@H](C(=O)N1CCC[C@H]1C(=O)Nc1snnc1-c1ccccc1)C1CCCCC1

>  <Readout>
TGI

>  <Censoring qualifier>
>

>  <Data value>
100

$$$$

====

- System: BT-549 breast
- Assay comment: NCI tumour cell line growth inhibition, 48 h
TGI listing for selected molecules.

>  <Chemical smiles>
C=C(C)C1=CCC[C@]2(C1)N=C(OC)[C@@H](C(C)C)N=C2OC

>  <TGI>
> 100 µM

$$$$
>  <Chemical smiles>
O=C1CCCCC/C1=C\c1cccc(Cl)c1

>  <TGI>
> 100 µM

$$$$
>  <Chemical smiles>
COc1cc(CSc2nc3ccc(C)cc3c(=O)n2-c2ccccc2)cc(OC)c1OC

>  <TGI>
> 100 µM

$$$$

====

GI50 listing for selected compounds.
- Test system: SF-539 CNS
- Assay comment: NCI tumour cell line growth inhibition, 48 h

>  <Chemical smiles>
Cc1c(C(N)=O)sc2c1C(=O)N(Cc1ccccc1)C1=NN=C(c3ccc(Cl)cc3)CN12

>  <GI50>
3.39 µM

$$$$
>  <Chemical smiles>
COc1ccc(-c2nc(-c3nc4ccc(OC)cc4[nH]3)c3ccccn23)cc1

>  <GI50>
9.71 µM

$$$$
>  <Chemical smiles>
CC(C)(C)n1cc(-c2ccnc(NCCCNS(=O)(=O)c3ccc(C(F)(F)F)cc3)c2)c(-c2cccc(O)c2)n1

>  <GI50>
1.65 µM

$$$$
>  <Chemical smiles>
COc1cc(/C=C/C(=O)c2cccc(Nc3nc(Nc4ccccc4)nc(Nc4ccccc4)n3)c2)cc(OC)c1OC

>  <GI50>
12 µM

$$$$

====

- System: HL-60(TB) leukemia
- Assay comment: NCI tumour cell line growth inhibition, 48 h

>  <Compound>
CC1C2(C)OC(=N)C(C#N)(C(c3ccccc3)O2)C1(C#N)C#N (centres undefined)

>  <TGI>
40.1 µM

$$$$
>  <Compound>
COc1cc(NC(C)CCCNC2CN3CCC2CC3)c2ncccc2c1 (centres undefined)

>  <TGI>
11 µM

$$$$
>  <Compound>
CCCCOC(=O)C1C2CCC(O2)C1C(=O)OCCCC (centres undefined)

>  <TGI>
> 100 µM

$$$$
>  <Compound>
C/C(=N\NS(=O)(=O)c1ccc(C)cc1)C(CN1CCCCC1)C(c1ccccc1)c1c(O)c2ccccc2oc1=O (centres undefined)

>  <TGI>
> 100 µM

$$$$

====

- Tested on: NCI/ADR-RES ovarian
- Assay comment: NCI tumour cell line growth inhibition, 48 h

>  <Compound>
COc1cc(C[C@H]2c3cc(OC)c(OC)cc3CCN2C)c(Oc2cc3c(cc2OC)-c2c(OC)c(OC)cc4c2[C@H](C3)N(C)CC4)cc1OC

>  <TGI>
32.3 µM

$$$$
>  <Compound>
Cc1cc2c(cc1C)N(C(=O)CCl)CC(=O)N2

>  <TGI>
> 100 µM

$$$$
>  <Compound>
C#Cc1c(F)ccc2cc(O)cc(-c3ncc4c(N5CC6CCC(C5)N6)nc(OC[C@@]56CCCN5C[C@H](F)C6)nc4c3F)c12

>  <TGI>
> 100 µM

$$$$
>  <Compound>
COc1ccc2cc(C(=O)/C=C/c3ccc(Cl)cc3Cl)ccc2c1

>  <TGI>
> 100 µM

$$$$
>  <Compound>
Clc1ccc(NCc2nnc(CCCCCCCCc3nnc(CNc4ccc(Cl)cc4)o3)o2)cc1

>  <TGI>
> 100 µM

$$$$
>  <Compound>
Cc1ccc(Nc2n[nH]c(=S)s2)cc1C

>  <TGI>
> 100 µM

$$$$
>  <Compound>
Cn1c2ccccc2n2c(N=O)c(-c3ccccc3)nc12

>  <TGI>
> 100 µM

$$$$
>  <Compound>
O=C(CCCCCCCCC(=O)N/N=C\c1ccccc1O)N/N=C\c1ccccc1O

>  <TGI>
25.4 µM

$$$$
>  <Compound>
Nc1c(C(=O)c2cccc(-c3ccncc3)c2)cnn1-c1ccc(F)cc1F

>  <TGI>
> 25 µM

$$$$
>  <Compound>
COc1c(C)c2c(c(O)c1C/C=C(\C)CCC(=O)O)C(=O)OC2

>  <TGI>
> 100 µM

$$$$
>  <Compound>
COc1cc2c(cc1C)NC(=O)/C2=C/c1ccccn1

>  <TGI>
6.27 µM

$$$$
>  <Compound>
CC(=O)NC1C(OCc2ccccc2)OC(CO)C(O)C1OC(C)C(=O)NC(C(=O)N[C@@H](CCC(=O)NCCNCCNc1c2ccccc2nc2cccc([N+](=O)[O-])c12)C(N)=O)C(C)C (some centres not stated)

>  <TGI>
> 100 µM

$$$$

====

TGI listing for selected compounds.
- Tested on: MDA-MB-435
- Assay comment: NCI tumour cell line growth inhibition, 48 h
Readout: TGI (µM)

>  <Chemical smiles>
O=C1CCCCC/C1=C\c1cccc(Cl)c1

>  <System under test>
MDA-MB-435

>  <Result units>
µM

>  <Censoring qualifier>
=

>  <Data value>
94.4

$$$$
>  <Chemical smiles>
CCOP(=O)(OCC)/C(C#N)=C/c1ncc[nH]1

>  <System under test>
MDA-MB-435

>  <Result units>
µM

>  <Censoring qualifier>
>

>  <Data value>
100

$$$$
>  <Chemical smiles>
CC(C)N(Cc1ccccc1)c1c(S)ssc1=S

>  <System under test>
MDA-MB-435

>  <Result units>
µM

>  <Censoring qualifier>
=

>  <Data value>
18.5

$$$$

====

- System: SK-MEL-2 melanoma
- Assay comment: NCI tumour cell line growth inhibition, 48 h
TGI listing for selected compounds.

>  <Compound>
COc1ccc(C(=O)c2cc(OC)c(OC)c(OC)c2)cc1OC(=O)CCl

>  <TGI>
> 100 µM

$$$$
>  <Compound>
O=C(O)CNC(=O)c1ccc(-c2ccccc2)cc1

>  <TGI>
> 100 µM

$$$$
>  <Compound>
Fc1ccc2c(c1)C1=NN(c3ccccc3)C(F)C1CO2 (stereo not given)

>  <TGI>
> 50 µM

$$$$
>  <Compound>
COc1cc2c(c(OC)c1OC)-c1ccc(SC)c(=O)cc1C(CO)C2 (stereo not given)

>  <TGI>
< 0.01 µM

$$$$
>  <Compound>
Cc1nc2ccccc2n1COC(Cn1ccnc1)c1ccc(Cl)cc1Cl (stereo not given)

>  <TGI>
> 100 µM

$$$$
>  <Compound>
CC(C)[C@H](N)C(=O)N1CCC[C@H]1B(O)O

>  <TGI>
> 100 µM

$$$$
>  <Compound>
CN(O)c1nc(N(C)O)nc(N2CCOCC2)n1

>  <TGI>
> 100 µM

$$$$
>  <Compound>
OC(c1ccccc1)(c1ccccc1)c1ccncc1

>  <TGI>
> 100 µM

$$$$
>  <Compound>
CSc1nc(C#N)c(/N=C\N(C)C)n1C

>  <TGI>
> 100 µM

$$$$
>  <Compound>
Cc1ccc(Nc2n[nH]c(=S)s2)cc1C

>  <TGI>
> 100 µM

$$$$
